Molecular target: Urokinase-type plasminogen activator (Homo sapiens)
Assay: Inhibition of human uPA using pyroGlu-Gly-Arg-p-NA.HCl as substrate preincubated for 15 mins prior substrate addition measured for 10 mins by spectrophotometry
pIC50: −log10 of the molar value.
Please enter Fulfilled where pIC50 is greater than or equal to 5, and Not fulfilled where it is lower.

Worked set:
[[record]]
structure_string = "COc1ccc2cc(S(=O)(=O)Nc3ccc(-c4ccccc4)cc3)ccc2c1"
tested_system = "Urokinase-type plasminogen activator (Homo sapiens)"
cat = "Not fulfilled"

[[record]]
structure_string = "COC(=O)c1ccc2cc(C(=O)Nc3ccccc3)ccc2c1"
tested_system = "Urokinase-type plasminogen activator (Homo sapiens)"
cat = "Not fulfilled"

[[record]]
structure_string = "COC(=O)c1cccc(-c2ccc(NC(=O)c3ccc4cc(Cl)ccc4c3)cc2)c1"
tested_system = "Urokinase-type plasminogen activator (Homo sapiens)"
cat = "Fulfilled"

[[record]]
structure_string = "COc1ccc2cc(C(=O)Nc3ccccc3)ccc2c1"
tested_system = "Urokinase-type plasminogen activator (Homo sapiens)"
cat = "Not fulfilled"

[[record]]
structure_string = "O=C(O)c1ccc2cc(C(=O)Nc3ccccc3)ccc2c1"
tested_system = "Urokinase-type plasminogen activator (Homo sapiens)"
cat = "Not fulfilled"

[[record]]
structure_string = "COc1ccc2cc(S(=O)(=O)Nc3ccc(-c4cccc(N)c4)cc3)ccc2c1"
tested_system = "Urokinase-type plasminogen activator (Homo sapiens)"
cat = "Not fulfilled"

[[record]]
structure_string = "COc1ccc(-c2ccc(NC(=O)c3ccc4cc(C(N)=O)ccc4c3)cc2OC)cc1"
tested_system = "Urokinase-type plasminogen activator (Homo sapiens)"
cat = "Fulfilled"

[[record]]
structure_string = "COc1ccc2cc(S(=O)(=O)Nc3ccc(-c4cccc(C(N)=O)c4)cc3)ccc2c1"
tested_system = "Urokinase-type plasminogen activator (Homo sapiens)"
cat = "Not fulfilled"


Query :: Does pIC50 meet or surpass 5 for COc1ccc2cc(C(=O)Nc3ccc(-c4cccc([N+](=O)[O-])c4)cc3)ccc2c1 ?
Result :: Fulfilled

Query :: Here is the next compound: COC(=O)c1cccc(-c2ccc(NC(=O)c3ccc4cc(C(=O)OC)ccc4c3)cc2)c1
Result :: Not fulfilled

Query :: Here is the next compound: N=C(N)c1ccc(/C=C2/N=C(c3ccccc3)OC2=O)cc1
Result :: Fulfilled

Attribution: ChEMBL document CHEMBL1944597
